- Test system: platelet aggregation
- measurement.protocol: In-Vitro Platelet Aggregation in PRP (ADP-induced)
- Format: cell-based
- experimental.context: Canis lupus familiaris, Platelet, dog platelet-rich plasma; ADP 50 μm final; 1 min preincubation at 37° C.
Below, each of the compounds is paired with its reported IC50 value.

| compound | system | output.unit | IC50 |
| --- | --- | --- | --- |
| COc1ccc2c(c1)OC(=O)CC2NC(=O)CCCCc1ccc(C(=N)N)cc1 (racemic) [Example 3] | platelet aggregation | nM | 1100 |
| N=C(N)c1ccc(CCCCC(=O)NC2CC(=O)Oc3ccccc32)cc1 (racemic) [Example 2] | platelet aggregation | nM | 2000 |
